Target: Angiotensin II Type I Receptor (Homo sapiens)
Construct: purchased NEN Research Products NED-014
Sequence (P30556 1-359): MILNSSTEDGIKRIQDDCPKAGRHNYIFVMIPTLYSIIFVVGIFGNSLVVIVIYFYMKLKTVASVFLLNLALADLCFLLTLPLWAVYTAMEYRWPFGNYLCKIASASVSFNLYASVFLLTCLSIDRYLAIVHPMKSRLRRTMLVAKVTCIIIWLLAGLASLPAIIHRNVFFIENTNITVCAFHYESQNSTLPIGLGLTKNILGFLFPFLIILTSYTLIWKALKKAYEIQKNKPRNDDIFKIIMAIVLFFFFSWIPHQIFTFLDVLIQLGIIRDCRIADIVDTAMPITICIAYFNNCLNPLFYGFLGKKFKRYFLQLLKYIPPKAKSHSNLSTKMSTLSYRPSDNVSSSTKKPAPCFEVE
Assay: Binding affinity to Angiotensin II receptor ([125I]-Sar1,Ile8-Angiotensin II radioligand, Angiotensin II Type I Receptor Kit NED-014)
Details: marked * Calculated; read-out: IC50 (*Calculated)
RESULT TYPE: IC50

Consider the worked cases shown below.
INSERT INTO assay_data (smiles_code, result_type, recorded_result) VALUES
  ('CCCCc1nc(Cl)c(CCc2ccccc2)c(=O)n1Cc1ccc(-c2ccccc2-c2nnn[nH]2)cc1', 'IC50', '72 nM'),
  ('CCCCc1nnc(C)c(=O)n1Cc1ccc(-c2ccccc2-c2nnn[nH]2)cc1', 'IC50', '310 nM');

Now consider a different compound.
Short answer on Angiotensin II Type I Receptor (Homo sapiens) for `CCCCc1nnc(-c2ccccc2)c(=O)n1Cc1ccc(-c2ccccc2-c2nnn[nH]2)cc1` , IC50: 62.6 nM
